Origin of values: patent US20240116985A1

- experimentalSystem: full-length beta-Catenin (Uniprot ID P35222) (Homo sapiens (Human)) (UniProt P35222)
- Sequence (P35222 2-781 limits assumed): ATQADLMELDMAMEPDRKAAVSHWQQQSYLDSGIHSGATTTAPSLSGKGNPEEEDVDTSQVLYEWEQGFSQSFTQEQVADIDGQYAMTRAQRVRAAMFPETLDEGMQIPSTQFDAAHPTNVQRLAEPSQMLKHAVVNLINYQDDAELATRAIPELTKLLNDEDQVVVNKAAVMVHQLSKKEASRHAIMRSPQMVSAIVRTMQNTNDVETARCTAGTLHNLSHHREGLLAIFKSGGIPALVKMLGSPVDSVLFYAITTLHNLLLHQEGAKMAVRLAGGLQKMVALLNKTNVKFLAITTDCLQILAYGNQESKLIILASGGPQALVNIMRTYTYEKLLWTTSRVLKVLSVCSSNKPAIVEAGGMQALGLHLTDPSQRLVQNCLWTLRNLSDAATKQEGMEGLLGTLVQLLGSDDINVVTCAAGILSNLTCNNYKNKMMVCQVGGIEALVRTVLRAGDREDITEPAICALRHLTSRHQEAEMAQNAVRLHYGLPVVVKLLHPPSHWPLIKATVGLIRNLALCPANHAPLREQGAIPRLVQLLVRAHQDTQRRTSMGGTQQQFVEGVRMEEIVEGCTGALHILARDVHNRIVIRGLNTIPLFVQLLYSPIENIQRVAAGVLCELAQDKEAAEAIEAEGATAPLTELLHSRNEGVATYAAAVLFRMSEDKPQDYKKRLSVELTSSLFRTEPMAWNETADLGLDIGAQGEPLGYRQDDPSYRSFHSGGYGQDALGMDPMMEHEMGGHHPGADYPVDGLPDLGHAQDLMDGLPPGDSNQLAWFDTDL
- experimentalDetails: cell-based or functional assay
Starred links: 1 amine or outer side, 2 acyl side, 3 side chain; linkers in the order of their positions; H or OH if unused. Positions of bridges follow the written chain, without caps; N, C: chain ends. Non-standard residues stand in square brackets, D forms with d. Primed or numbered codes have the meaning given here. PyrS2″ = (S)-3-amino-1-((pent-4-en-1-yloxy)carbonyl)pyrrolidine-3-carboxylic acid (stapling residue), C=CCCCOC(=O)N1CC[C@@](N[*:1])(C(=O)[*:2])C1; B5(4) = 2,2-bis(4-pentenyl)glycine = 2-amino-2-(pent-4-en-1-yl)hept-6-enoic acid (stitching residue), C=CCCCC(CCCC=C)(N[*:1])C(=O)[*:2]; B5(5) = 2,2-bis(4-pentenyl)glycine, 2-amino-2-(pent-4-en-1-yl)hept-6-enoic acid (stitching residue), C=CCCCC(CCCC=C)(N[*:1])C(=O)[*:2]; Phe(2-Cl) = N[C@@H](Cc1ccccc1Cl)C(=O)O; Bta = N[C@@H](Cc1csc2ccccc12)C(=O)O; αAllylPro = C=CC[C@@]1(C(=O)O)CCCN1; tBuAla = CC(C)(C)C[C@H](N)C(=O)O; S8 = C=CCCCCCC[C@](C)(N)C(=O)O; Thr(ol) = C[C@@H](O)[C@H](N)CO
quantity: DLD1 reporter assay Abs IC50

Worked examples follow.
binder: Ac-[αAllylPro]D[tBuAla][B5(4)]DDAAFN[PyrS2″][Phe(2-Cl)][Bta][Thr(ol)] (staple 1-4, 4-11) [I-1082]
DLD1 reporter assay Abs IC50: 4.8 µM

binder: Ac-[αAllylPro]D[tBuAla][B5(5)]DDAAFL[S8][Phe(2-Cl)][Bta][dT]-NH2 (staple 1-4, 4-11) [I-1097]
DLD1 reporter assay Abs IC50: > 20 µM

Shift focus to the following entry.
Problem: Dear colleague, please send me the reported DLD1 reporter assay Abs IC50 for Ac-[αAllylPro]E[tBuAla][B5(5)]DDAAFN[PyrS2″][Phe(2-Cl)][Bta][dT]-NH2 (staple 1-4, 4-11) [I-1029] when you can.
Result: > 20 µM
